Target: Tumor necrosis factor receptor superfamily member 10B (Homo sapiens)
Assay: compound enhancement of TRAIL-induced cell killing – NB7 cells plus caspase-8, luminescence, panel, dose response (AID 652002)
Conditions: NB7 neuroblastoma +caspase-8, TRAIL sensitization, luminescence viability; NB7+Caspase-8; with TRAIL, mean of runs
Active and inactive are the calls of the source. No rule for the calls is given here.
readout: EC50

In [3]: df
Out[3]:
                                   molecule                result
0             O=C(ONC1=NCCCCC1)c1ccc(Cl)cc1  > 12.5 µM (inactive)
1  CC(C)(C)OC(=O)NCc1ccc(NC(=O)c2nc[nH]c2C(=O)N[C@@H](Cc2ccccc2)C(=O)OCc2ccccc2)cc1  > 12.5 µM (inactive)
2          O=C(Nc1ccc2ccccc2c1)c1ccc(Cl)cc1  > 12.5 µM (inactive)
3            Clc1nc(Cl)c2ncn(-c3ccccc3)c2n1  > 12.5 µM (inactive)
4  CCOC(=O)[C@]12Cc3cc4ccccc4cc3[C@H]1N(Cc1ccccc1)C(=O)c1cc(OC)ccc12  > 12.5 µM (inactive)

Go through the list and state EC50 for each entry.
1. Cc1ccc2c(c1)C(=NC1CCCCC1)c1cc3ccccc3nc1-2
2. CN(C)c1ccc(N/C=C/C(=O)c2ccco2)cc1

RESULT:
> 12.5 µM (inactive)
inactive

Go through the list and state EC50 for each entry.
1. C=Cc1ccc(Cn2c(C)c(C(=O)NCc3cccc(C(F)(F)F)c3)sc2=O)cc1
2. O=C(Oc1c(CN2CCOCC2)cc(Cl)c2cccnc12)c1cccs1

RESULT:
1. > 12.5 µM (inactive)
2. inactive

----------
Assay: compound enhancement of TRAIL-induced cell killing – NB7 cells plus caspase-8, luminescence, panel, dose response (AID 652002)
Settings: NB7 neuroblastoma +caspase-8, no TRAIL, compound-alone cytotoxicity counter-screen, luminescence viability; NB7+Caspase-8; mean of runs
The source made the active and inactive calls. No rule for the calls is given here.
readout: EC50

Answered cases to consult:
>>> df
                              sample_smiles                result
0  Cc1ccc(NC(=O)CSc2nc3ccc(Nc4nc(N5CCOCC5)nc(N5CCOCC5)n4)cc3s2)cc1  > 12.5 µM (inactive)
1  Cc1nn(-c2ccccc2)c2nc(N)c(C#N)c(-c3ccc(F)cc3)c12              inactive
2          O=C(Nc1ccc2ccccc2c1)c1ccc(Cl)cc1  > 12.5 µM (inactive)
3                Cc1ccc(NC(=O)c2ccccc2O)cc1              inactive
4  O=C(Nc1ccc(C(=O)O)cc1)/C(=C\C=C\c1ccccc1)NC(=O)c1ccccc1Cl              inactive
5             COC(=O)CSc1nc2cc(C)ccc2cc1C#N  > 12.5 µM (inactive)
6  COCCCn1c(C(=O)Nc2ccc3c(c2)OCO3)cc2c(=O)n3cccc(C)c3nc21  > 12.5 µM (inactive)
7            Cc1ccc(NC(=O)c2cc3ccccc3o2)nc1              inactive

Go through the list and state EC50 for each entry.
1. O=C(Nc1cnc2ccccn2c1=O)c1ccc(Cl)cc1Cl
2. CSc1nc(N)n2nc(-c3ccc(Cl)cc3)cc2n1
3. CCOc1ccc(-c2cc(C(=O)N3CCC(C)CC3)c3ccccc3n2)cc1

RESULT:
1: > 12.5 µM (inactive); 2: > 12.5 µM (inactive); 3: > 12.5 µM (inactive)

----------
Please respond with reported EC50 for every item in the list.
Assay: compound enhancement of TRAIL-induced cell killing – NB7 cells plus caspase-8, luminescence, panel, dose response (AID 652002)
Conditions: NB7 neuroblastoma +caspase-8, no TRAIL, compound-alone cytotoxicity counter-screen, luminescence viability; NB7+Caspase-8; run 1; single replicate panel EC50

Go through the list and state EC50 for each entry.
1. CC1(C)N=C(N)N=C(N)N1c1ccc(CCCCc2ccccc2)cc1
2. COc1ccccc1C=NNC(=O)NN=Cc1ccccc1OC

RESULT:
1: > 12.5 µM; 2: 8.5 µM

Go through the list and state EC50 for each entry.
1. O=C(Nc1ccc(C(=O)O)cc1)/C(=C\C=C\c1ccccc1)NC(=O)c1ccccc1Cl
2. O=c1cc(-c2ccccc2)nc2cc(-c3ccc(F)cc3)[nH]n12
3. O=C1c2ccc(Cl)cc2S(=O)(=O)c2cccc(C(=O)N3CCC(Cc4ccccc4)CC3)c21
4. COc1ccccc1/C=C/C=N/n1c(-c2cc(-c3ccccc3)n[nH]2)n[nH]c1=S
5. O=c1[nH]c(N/N=C\c2ccc3c(c2)OCO3)nc2ccccc12

RESULT:
7.94 µM
> 12.5 µM
> 12.5 µM
> 12.5 µM
> 12.5 µM

Go through the list and state EC50 for each entry.
1. CC(=O)c1ccc(NC(=O)Nc2cccnc2)cc1
2. Cc1nc2cc(NC(=O)c3ccco3)ccc2n1C

RESULT:
1. 11.4 µM
2. > 12.5 µM

Go through the list and state EC50 for each entry.
1. CC(C)C(=O)Nc1ccc(NC(=O)c2ccccn2)cn1
2. O=C(NC1=NCCS1)c1cc2ccccc2o1

RESULT:
1. > 12.5 µM
2. > 12.5 µM

Go through the list and state EC50 for each entry.
1. CCSc1ccc(-c2ccc(C)cc2)nn1
2. CCOC(=O)c1sc(NC(=O)c2cccc(S(=O)(=O)N3CCc4ccccc43)c2)c(C#N)c1C
3. COc1ccc(-c2cc(C(=O)OCC(=O)Nc3ccc4c(c3)OCO4)c3ccccc3n2)cc1
4. CCOc1ccc(-c2nnc(-c3ccccc3)o2)cc1

RESULT:
["> 12.5 µM", "> 12.5 µM", "6.39 µM", "> 12.5 µM"]

Go through the list and state EC50 for each entry.
1. CCN(CC)c1ccc(NC(=O)Nc2ccccc2)cc1
2. Cc1ccn2cc(C(=O)Nc3ccc4c(c3)OCCO4)nc2c1
3. CCOC(=O)c1sc(NC(=O)c2cc(-c3ccccc3C)nc3ccccc23)c(C#N)c1C
4. COc1cccc(NC(=O)c2ccc3c(c2)OCO3)c1
5. O=C1CCCc2nc(N3CCc4ccccc43)ncc21

RESULT:
1: > 12.5 µM; 2: 7.08 µM; 3: > 12.5 µM; 4: 8.96 µM; 5: > 12.5 µM

Go through the list and state EC50 for each entry.
1. COc1ccc(/C(C)=N/Nc2nncc3ccccc23)cc1
2. COc1cc(NC(=O)c2[nH]cnc2C(N)=O)cc(C(=O)Nc2cccc(C(F)(F)F)c2)c1
3. NNC(=O)C1CCCn2c1nc1sc3c(c1c2=O)CCCC3 (stereo not drawn)

RESULT:
1. > 12.5 µM
2. > 12.5 µM
3. > 12.5 µM

----------
Please respond with reported pEC50 for every item in the list.
Assay: compound enhancement of TRAIL-induced cell killing – NB7 cells plus caspase-8, luminescence, panel, dose response (AID 652002)
Conditions: NB7 neuroblastoma +caspase-8, no TRAIL, compound-alone cytotoxicity counter-screen, luminescence viability; NB7+Caspase-8; run 1; single replicate panel EC50
pEC50: −log10 of the molar value.

                                   compound  readout  result
0  CN(C)S(=O)(=O)c1ccc(C(=O)Nc2nnc(SCC(=O)NCC3CCCO3)s2)cc1 (centres undefined)    pEC50  < 4.90
1  COC(=O)c1ccc(/C=C/c2nc3ccccc3c(=O)[nH]2)cc1    pEC50  < 4.90
2          O=C(N/N=C/c1ccc2cccnc2c1)c1ccco1    pEC50    4.94
3  CCOC(=O)c1cccc(-[n+]2c(-c3ccccc3)cc(-c3ccccc3)cc2-c2ccccc2)c1    pEC50  < 4.90
4          O=C(Nc1ccc2ccccc2c1)c1ccc(Cl)cc1    pEC50  < 4.90

Go through the list and state pEC50 for each entry.
1. C(=C\c1ccco1)/c1nc2ccccc2[nH]1
2. O=C(NNC(=O)c1cc(OCC(F)(F)F)ccc1OCC(F)(F)F)c1ccc(Cl)c(Cl)c1
3. CCCCc1nc(NCCN)c(C#N)c2c1CSC(C)(C)C2
4. COc1cc(SC#N)ccc1N=Cc1c(C)[nH]n(-c2ccc(Cl)cc2)c1=O
5. COc1ccc(OCC(=O)N/N=C/C=C/c2ccccc2)cc1
6. O=c1[nH]c(=S)[nH]c2c1C(c1ccc(Cl)c(Cl)c1)OC(CCc1ccccc1)C2 (centres undefined)
7. CCC(C)c1ccc(O)c(NC(=S)NC(=O)c2cccs2)c1 (centres undefined)
8. COC(=O)CSc1nc2cc(C)ccc2cc1C#N

RESULT:
1: < 4.90; 2: < 4.90; 3: < 4.90; 4: < 4.90; 5: 4.99; 6: < 4.90; 7: 5.22; 8: < 4.90

Go through the list and state pEC50 for each entry.
1. O=C(c1cnc(Cl)c(Cl)c1)N1CCN(S(=O)(=O)c2ccc3ccccc3c2)CC1
2. CC1(Cc2ccc(OC(F)(F)F)cc2)C(=O)Nc2ccc(S(=O)(=O)NC3CCCCC3)cc21 (centres undefined)
3. CCN(CC)S(=O)(=O)c1ccc(C(=O)OCC(=O)Nc2ccc(-c3nc4ccc(C)cc4s3)cc2)cc1
4. Cc1ccc2c(c1)C(=NC1CCCCC1)c1cc3ccccc3nc1-2

RESULT:
1: < 4.90; 2: < 4.90; 3: < 4.90; 4: < 4.90
